experiment: reduced mouse 2C T cell binding to pMHC/ICAM-1 vesicles – MLPCN validation set, flow cytometry, LFA-1/ICAM-1 modulator project, pilot screen (AID 2523); conditions: 2C mouse CD8+ T cells, at 7 µM, stronger effect = lower value;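 note: mean PE anti-B7-1 fluorescence of CD8+ cells relative to row control; 100% = QL9-loaded vesicles with DMSO vehicle in the same plate row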
compounds and their reported vesicle binding response
readout: vesicle binding response (%)

CC1(C)c2ccccc2N2CC(=O)NC21/C=C/c1ccco1 (stereo unspecified)	87.6
CCc1cc(=O)oc2cc(OCc3nn[nH]n3)ccc12	174
COc1cc2c(cc1OC)-c1nnc(C)n1C(C)(C)C2	211
CCOc1ccc(C(=O)C(C)=O)c(OCC)c1	211
C[C@H](CCC(=O)O)[C@H]1CC[C@H]2[C@@H]3C(=O)C[C@@H]4CC(=O)CC[C@]4(C)[C@H]3CC(=O)[C@]12C	220
CN(C)CCN(Cc1ccccc1)c1ccccn1	269
N/C(=N\OC(=O)c1ccc(Br)o1)c1ccccn1	232
CN(C)CCC(c1ccc(Cl)cc1)c1ccccn1 (stereo unspecified)	215
CC12CCC(C(=O)NNc3ccccc3)(C(=O)C1=O)C2(C)C (stereo unspecified)	217
CC(OC(=O)c1cc(=O)[nH]c2ccccc12)C(=O)c1ccccc1 (stereo unspecified)	174
COC(=O)C1=NN(C(=O)c2cccc(Br)c2)C(O)(c2ccc(Cl)cc2)C1 (stereo unspecified)	223
Clc1ccc2c(c1)[C@H]1OCC[C@H]1[C@@H](c1ccco1)N2	144
CCc1cccc2c3c([nH]c12)C(CC)(CC(=O)O)OCC3 (stereo unspecified)	36.2
Cc1ccc(C)c(OCCCC(C)(C)C(=O)O)c1	203
C=CCNc1nc2c(c(=O)n(C)c(=O)n2C)n1CC(=C)C	176
CC(C)C12CN3CC(C(C)C)(CN(C1)C31C(=O)Nc3ccccc31)C2=O (stereo unspecified)	190
O=C1CC(c2ccc(OCCCCCOc3ccc(C4CC(=O)NC4=O)cc3)cc2)C(=O)N1 (stereo unspecified)	1500
O=C(CCC(=O)c1cccs1)c1cccs1	125
O=C1Cc2ccccc2C(c2ccccc2)N1 (stereo unspecified)	449
CC(C)N(Cc1nccn1C)C(=O)CC1C(=O)NCCN1Cc1ccccc1C(F)(F)F (stereo unspecified)	182
O=C(/C=C/c1ccccc1)NCC1(c2ccccc2)CCOCC1	255
COc1ccc(C2NC(C(=O)O)Cc3c2[nH]c2ccccc32)cc1CN1CCN(c2ccc(F)cc2)CC1 (stereo unspecified)	242
O=c1c2[nH]c3ccccc3c2ncn1CCC1=CCCCC1	149
COC(=O)c1ccc(NC(=O)c2ccccc2SC)cc1	132
Cc1[nH]c2ccccc2c1/C=C/c1nc2ccccc2c(=O)n1CCO	200
c1ccc(Cn2nnc3cnccc32)cc1	67.8
O=C(Cc1ccccc1)NNC(=O)Cc1ccccc1	224
COC(=O)C1=C(C)N(Cc2ccco2)C(=O)/C1=C\c1ccc([N+](=O)[O-])cc1	232
OCCOCCN1CCN(C(c2ccccc2)c2ccc(Cl)cc2)CC1 (stereo unspecified)	218
CC(NC(=O)OCc1ccccc1)C(=O)N1CC(O)CC1C(=O)O (stereo unspecified)	182
O=c1cc(CN2CCN(c3cccc(Cl)c3)CC2)c2cc(O)c(-c3ccccc3)cc2o1	265
O=C(O)CCCCCNC(=O)Nc1ccc2c(c1)OCCO2	207
Nc1cnn(C2OC(CO)C(O)C2O)c(=O)n1 (stereo unspecified)	463
CC(=O)OCC(=O)[C@@]1(O)[C@H](C)C[C@H]2[C@@H]3CCC4=CC(=O)C=C[C@]4(C)[C@@]3(F)[C@@H](O)C[C@@]21C	192
O=c1c(C(c2ccccc2)c2c(O)sc3ccccc3c2=O)c(O)sc2ccccc12	187
CCOc1ccc2oc(-c3ccccc3)c(C(=O)O)c2c1	204
COc1ccc2nc(S(=O)Cc3ncc(C)c(OC)c3C)[nH]c2c1 (stereo unspecified)	131
C[N+](C)(C)CCCC(=O)c1ccc2c(c1)OCO2	135
Cc1c(Cc2ccccc2)c(=O)oc2c(CN(C)C)c(O)c(Cl)cc12	358
O=C(O)CCCCCN1C(=O)C(=O)/C(=C(/O)c2ccccc2)C1c1ccccc1 (stereo unspecified)	212
COc1ccccc1NC(=O)N1CCc2[nH]c3ccc(Cl)cc3c2C1	135
CC1CCN(CCOCCOc2ccccc2Br)CC1	167
CCC(C)NCCOc1ccccc1C (stereo unspecified)	115
CC1=C(/C=C/C(C)=C/C=C/C(C)=C/C(=O)O)C(C)(C)CCC1	194
Cn1c(=S)n(C)c2ccccc21	264
NC(=O)C1CCCNC1 (stereo unspecified)	302
